# System: Mouse tail fibroblast (MTF) cells
# TEST_DESCRIPTION: in vitro
# CONDITIONS: peptide concentration 1 μM, 200 nM siRNA; 100% represents 100% viability
Mal = not defined here
PROPERTY_MEASURED: % Cell Viability (%)
Write the number in % without appending the unit.

Use the examples below as a reference point.
- SUBSTANCE: "PEG (10 KDa)-Mal-(Lys)20-amide ({PEG 10 kDa-Mal}-KKKKKKKKKKKKKKKKKKKK-NH2; reading uncertain) [PN928]"
  PROPERTY_MEASURED: "% Cell Viability"
  RESULT_UNIT: "%"
  DATA_VALUE: 97.3
- SUBSTANCE: "PEG (10 KDa)-Mal-(Lys)10-amide ({PEG 10 kDa-Mal}-KKKKKKKKKK-NH2; reading uncertain; also: printed as PEG (10 KDa)-Mal-(Lys)10-amide) [PN934]"
  PROPERTY_MEASURED: "% Cell Viability"
  RESULT_UNIT: "%"
  DATA_VALUE: 98.3
- SUBSTANCE: "PEG (2 KDa)-Mal-(Lys-His)10-amide ({PEG 2 kDa-Mal}-KHKHKHKHKHKHKHKHKHKH-NH2; reading uncertain) [PN939]"
  PROPERTY_MEASURED: "% Cell Viability"
  RESULT_UNIT: "%"
  DATA_VALUE: 98.6
- SUBSTANCE: "PEG (2 KDa)-Mal-(Lys)20-amide ({PEG 2 kDa-Mal}-KKKKKKKKKKKKKKKKKKKK-NH2; reading uncertain) [PN926]"
  PROPERTY_MEASURED: "% Cell Viability"
  RESULT_UNIT: "%"
  DATA_VALUE: 97.9
- SUBSTANCE: "PEG (10 KDa)-Mal-(Lys)15-amide ({PEG 10 kDa-Mal}-KKKKKKKKKKKKKKK-NH2; reading uncertain; also: printed as PEG (10 KDa)-Mal-(Lys)15-amide) [PN931]"
  PROPERTY_MEASURED: "% Cell Viability"
  RESULT_UNIT: "%"
  DATA_VALUE: 97

Now examine the next entry.
Request: What measured % Cell Viability is associated with PEG (10 KDa)-Mal-(Lys-His)10-amide ({PEG 10 kDa-Mal}-KHKHKHKHKHKHKHKHKHKH-NH2; reading uncertain) [PN940] on Mouse tail fibroblast (MTF) cells?
Response: 99.1

====

# TEST_DESCRIPTION: in vitro
# CONDITIONS: C57BL/6J, mouse, mouse tail fibroblast (MTF) cells
PROPERTY_MEASURED: viability at 3 h, 100 µM (%)
Write the answer as a number in %, unit excluded.

Request: GET /values?readout=viability at 3 h, 100 µM&item= H-KHKHKHKHKHKHKHKHKHKH-NH2 [PN938, NH2-(Lys-His)10-amide]
Response: 98.8

Request: Consider the substance shown here: H-KHKHKHKHKHKHKHKHKHKHKHKHKHKHKH-NH2 [PN935, NH2-(Lys-His)15-amide] What is its recorded viability at 3 h, 100 µM?
Response: 96.6

Request: May I ask what viability at 3 h, 100 µM has been recorded for H-KKKKKKKKKK-NH2 [PN932, NH2-(Lys)10-amide] ?
Response: 98.4

Request: I am curious: what viability at 3 h, 100 µM value has been reported for H-KETWWETWWTEWSQPGRKKRRQRRRPPQ-NH2 [PN183, reference compound] ?
Response: 76.7

====

# TEST_DESCRIPTION: in vitro
# CONDITIONS: C57BL/6J, mouse, mouse tail fibroblast (MTF) cells
PROPERTY_MEASURED: viability at 3 h, 1 µM (%)
Numeric only. Scale: %

Request: Which viability at 3 h, 1 µM value belongs to H-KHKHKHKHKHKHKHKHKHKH-NH2 [PN938, NH2-(Lys-His)10-amide] ?
Response: 97.9

Request: Quick one: viability at 3 h, 1 µM of H-KHKHKHKHKHKHKHKHKHKHKHKHKHKHKH-NH2 [PN935, NH2-(Lys-His)15-amide] ?
Response: 98.1

Request: What measured viability at 3 h, 1 µM goes with H-KETWWETWWTEWSQPGRKKRRQRRRPPQ-NH2 [PN183, reference compound] ?
Response: 96

Request: What viability at 3 h, 1 µM value was documented for this substance, H-KKKKKKKKKK-NH2 [PN932, NH2-(Lys)10-amide] ?
Response: 97.3

====

Catalogue of % Cell-Uptake readings, one per entry.
# Tested on: Mouse tail fibroblast (MTF) cells
# TEST_DESCRIPTION: siRNA cell-uptake and MFI measured by FACS after peptide-mediated transfection of labeled siRNA
# Assay type: cell-based
# CONDITIONS: peptide concentration 1 μM, 200 nM labeled siRNA; % of total cells with intracellular labeled siRNA
Mal = not defined here
# value in %; strip the unit string

Example results:
- SUBSTANCE: "PEG (10 KDa)-Mal-(Lys-His)15-amide ({PEG 10 kDa-Mal}-KHKHKHKHKHKHKHKHKHKHKHKHKHKHKH-NH2; reading uncertain) [PN937]"
  SYSTEM_UNDER_TEST: "Mouse tail fibroblast (MTF) cells"
  % Cell-Uptake [%]: 54.7
- SUBSTANCE: "H-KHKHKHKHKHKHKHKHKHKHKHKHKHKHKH-NH2 [PN935, NH2-(Lys-His)15-amide]"
  SYSTEM_UNDER_TEST: "Mouse tail fibroblast (MTF) cells"
  % Cell-Uptake [%]: 20.3

Here is another substance to look at.
Request: Bench note: what % Cell-Uptake did H-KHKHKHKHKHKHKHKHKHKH-NH2 [PN938, NH2-(Lys-His)10-amide] show?
Response: 0.6

====

% Cell Viability overview
# System: Mouse tail fibroblast (MTF) cells
# TEST_DESCRIPTION: in vitro
# CONDITIONS: peptide concentration 1 μM, 200 nM siRNA; 100% represents 100% viability
Mal = not defined here
Answer format: numeric, % implied, no suffix.

- SUBSTANCE: "PEG (2 KDa)-Mal-(Lys)15-amide ({PEG 2 kDa-Mal}-KKKKKKKKKKKKKKK-NH2; reading uncertain; also: printed as PEG (2 KDa)-Mal-(Lys)15-amide) [PN930]"
  RESULT_UNIT: "%"
  % Cell Viability: 97.9
- SUBSTANCE: "PEG (10 KDa)-Mal-Trp-(Lys)30-amide (WKKKKKKKKKKKKKKKKKKKKKKKKKKKKKK; PEG 10 kDa maleimide; C-terminal amide) [PN986]"
  RESULT_UNIT: "%"
  % Cell Viability: 97.4
- SUBSTANCE: "PEG (10 KDa)-Mal-(Lys-His)15-amide ({PEG 10 kDa-Mal}-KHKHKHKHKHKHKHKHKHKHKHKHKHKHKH-NH2; reading uncertain) [PN937]"
  RESULT_UNIT: "%"
  % Cell Viability: 99
- SUBSTANCE: "PEG (2 KDa)-Mal-(Lys-His)15-amide ({PEG 2 kDa-Mal}-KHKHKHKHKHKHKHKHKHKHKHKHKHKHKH-NH2; reading uncertain) [PN936]"
  RESULT_UNIT: "%"
  % Cell Viability: 97.5

Please examine the following record next.
Request: Which % Cell Viability value is on record for PEG (2 KDa)-Mal-(Lys)10-amide ({PEG 2 kDa-Mal}-KKKKKKKKKK-NH2; reading uncertain; also: printed as PEG (2 KDa)-Mal-(Lys)10-amide) [PN933] ?
Response: 97.7

====

# reported % Cell-Uptake; entries follow
# System: Mouse tail fibroblast (MTF) cells
# TEST_DESCRIPTION: siRNA cell-uptake and MFI measured by FACS after peptide-mediated transfection of labeled siRNA
# Assay type: cell-based
# CONDITIONS: peptide concentration 1 μM, 200 nM labeled siRNA; % of total cells with intracellular labeled siRNA
Mal = not defined here
Give the quantity in %, number only.

Request: % Cell-Uptake for PEG (2 KDa)-Mal-(Lys-His)10-amide ({PEG 2 kDa-Mal}-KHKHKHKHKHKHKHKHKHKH-NH2; reading uncertain) [PN939] ?
Response: 66

Request: I am curious: what % Cell-Uptake value has been reported for PEG (2 KDa)-Mal-(Lys)15-amide ({PEG 2 kDa-Mal}-KKKKKKKKKKKKKKK-NH2; reading uncertain; also: printed as PEG (2 KDa)-Mal-(Lys)15-amide) [PN930] ?
Response: 0.2

Request: Report % Cell-Uptake for PEG (10 KDa)-Mal-Trp-(Lys)30-amide (WKKKKKKKKKKKKKKKKKKKKKKKKKKKKKK; PEG 10 kDa maleimide; C-terminal amide) [PN986] please.
Response: 0.6
